Target: Regulator of G-protein signaling 16 (Homo sapiens) (UniProt O15492)
Sequence (O15492 whole entry, looked up): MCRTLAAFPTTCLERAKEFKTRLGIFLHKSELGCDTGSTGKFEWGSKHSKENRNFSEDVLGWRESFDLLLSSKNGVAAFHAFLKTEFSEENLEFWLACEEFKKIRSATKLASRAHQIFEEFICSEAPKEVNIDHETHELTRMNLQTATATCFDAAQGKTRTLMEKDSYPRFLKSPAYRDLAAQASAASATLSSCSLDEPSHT
Assay: RGS16-Galphao binding modulators, SAR follow-up, biochemical, multiplexed bead flow cytometry, SAR compounds (AID 2298)
Settings: bead-based flow cytometry, AF488-Galphao binding to RGS16; measured here: Ki derived from EC50, inhibitors
This listing pairs compounds with measured pKi.
The quantity pKi is defined as the negative base-10 logarithm of the molar concentration.

A selection of reference data follows.
- Compound: "O=C(COc1ccccc1C(=O)N/N=C/c1ccc(O)c(O)c1)N/N=C/c1ccc(O)c(O)c1"
  Target entity: "Regulator of G-protein signaling 16 (Homo sapiens) (UniProt O15492)"
  pKi: 7.05
- Compound: "CCN(CC)S(=O)(=O)c1cccc(C(=O)N/N=C/c2ccc(O)c(O)c2O)c1"
  Target entity: "Regulator of G-protein signaling 16 (Homo sapiens) (UniProt O15492)"
  pKi: 6.32
- Compound: "CCN(CC)S(=O)(=O)c1cccc(-c2n[nH]c(=S)n2/N=C/c2ccc(C(=O)OC)cc2)c1"
  Target entity: "Regulator of G-protein signaling 16 (Homo sapiens) (UniProt O15492)"
  pKi: 6.12
- Compound: "CCOC(=O)c1sc(NC(=O)CSc2nnc(Cc3ccccc3)o2)c(C#N)c1C"
  Target entity: "Regulator of G-protein signaling 16 (Homo sapiens) (UniProt O15492)"
  pKi: 6.24
- Compound: "Cc1cccc(N2CCN(C(=O)Cn3sc4nc(C)cc(C)c4c3=O)CC2C)c1 (configuration not stated)"
  Target entity: "Regulator of G-protein signaling 16 (Homo sapiens) (UniProt O15492)"
  pKi: 7.05
- Compound: "COc1ccc(C2=CC(=O)C=CC2=O)cc1"
  Target entity: "Regulator of G-protein signaling 16 (Homo sapiens) (UniProt O15492)"
  pKi: 6.92

## Task Given `NS(=O)(=O)c1ccc(N/N=C/c2ccc(O)c(O)c2O)c([N+](=O)[O-])c1` , state its recorded pKi.
## Result 7.70

## Task Please answer likewise for CCC(=O)NC(c1ccc(C)cc1)c1cc([N+](=O)[O-])c2cccnc2c1O (configuration not stated)
## Result 5.37

## Task Please answer likewise for `CN1CCN(C2=C(Cl)C(=O)C(c3cnc(N4CCCCC4)s3)=C(Cl)C2=O)CC1`
## Result 7.70

###

Target: Regulator of G-protein signaling 16 (Homo sapiens) (UniProt O15492)
Assay: RGS16-Galphao binding modulators, SAR follow-up, biochemical, multiplexed bead flow cytometry, SAR compounds (AID 2298)
Conditions: bead-based flow cytometry, AF488-Galphao binding to RGS16; measured here: Ki derived from EC50, inhibitors
Quantity measured: log10 of Ki (log10 of the value in nM)
All values: base-10 log of Ki in nM.

A selection of reference data follows.
- Molecule: "Cc1cccc(N2CCN(C(=O)COc3nsc4nc(C)cc(C)c34)CC2C)c1 (stereo not drawn)"
  Target entity: "Regulator of G-protein signaling 16 (Homo sapiens) (UniProt O15492)"
  log10 of Ki: 3.06
- Molecule: "Cc1cc(Cl)ccc1N=c1ssnc1Cl"
  Target entity: "Regulator of G-protein signaling 16 (Homo sapiens) (UniProt O15492)"
  log10 of Ki: 1.60

## Task Given `O=C(Cc1csc(N2CCOCC2)n1)N/N=C/c1ccc(O)c(O)c1O` , state its recorded log10 of Ki.
## Result 2.83

## Task Please answer likewise for `Cc1[nH]n(-c2ccccc2)c(=S)c1C=Nc1cccc([N+](=O)[O-])c1`
## Result 1.60

## Task Please answer likewise for `CCN=c1scc(C)n1/N=C/c1ccc(O)c(O)c1O`
## Result 2.93

Data provenance is PubChem BioAssay AID2298.
